tested on: LNCaP; assay: Cytotoxicity against human LNCAP cells assessed as reduction in cell viability after 4 days by MTT assay in presence of DHT and E2; assay type: functional, cell-based; conditions: 96 h
Response field label: string, one of Criterion met (IC50 strictly below 500 nM) or Criterion not met.

{"compound": "COc1cccc(NC(=O)c2cnc(N3CCc4ccccc4C3)nc2)c1", "assigned_class": "Criterion not met"}
{"compound": "CC(O)(CS(=O)(=O)c1ccc(F)cc1)C(=O)Nc1ccc(C#N)c(C(F)(F)F)c1 (stereo not drawn) [BICALUTAMIDE]", "assigned_class": "Criterion not met"}
{"compound": "Cc1cccc(NC(=O)c2ccc(N3CCc4ccccc4C3)nc2)n1", "assigned_class": "Criterion not met"}
{"compound": "Cc1cccc(NC(=O)c2ccc(N3CCc4cc(OCCCc5ccccc5)ccc4C3)nc2)n1", "assigned_class": "Criterion met"}

Confirm or reject: IC50 of CCCOc1ccc2c(c1)CCN(c1ccc(C(=O)Nc3cccc(C)n3)cn1)C2 lies strictly below 500 nM
Criterion not met

Confirm or reject: IC50 of Cc1cccc(NC(=O)c2ccc(N3CCc4cc(O)ccc4C3)nc2)n1 lies strictly below 500 nM
Criterion not met

Confirm or reject: IC50 of CCCCOc1ccc2c(c1)CCN(c1ccc(C(=O)Nc3cccc(C)n3)cn1)C2 lies strictly below 500 nM
Criterion met

The origin of these recorded values is ChEMBL document CHEMBL3745625.
